Reference source: the RNAGym collection of RNA variant scans (doi:10.1093/nar/gkz1192)

Listed below: self-cleavage values for each entry.
B1: CPEB3 Ribozyme (parent)
chain: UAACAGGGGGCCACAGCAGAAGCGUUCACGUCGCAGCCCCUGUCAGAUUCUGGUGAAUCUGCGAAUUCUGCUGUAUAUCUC

Variants of: B1
Assay: self-cleavage, relative activity (ratio to wild type); higher = more cleavage; in vitro, sequencing
// print number alone

# example entries with known answers
{"Variant string": "C23G A75G", "self-cleavage": 0.14}
{"Variant string": "G6A C38A", "self-cleavage": 0.1}

For this variant ( G24A G63A ), measured self-cleavage is 0.37

For this variant ( U26A C34U ), measured self-cleavage is 0.29

For this variant ( A45U G52C ), measured self-cleavage is 0.29

For this variant ( C17U A57G ), measured self-cleavage is 0.51

For this variant ( A47G U74G ), measured self-cleavage is 1.24
